Tested on: Mus musculus
method.description: Anticonvulsant activity against maximal electroshock-induced seizures in CD1 mouse model at 20 mg/kg, po treated 30 mins before electroshock application
Type: functional, organism-based
Design: dose 20 mg/kg
The source made the active and inactive calls. The calls are words filed in the database; no cut-off is given here.
Assign a class; possible classes are yes = active, no = inactive

## Input Tell me the recorded outcome of this test for Cn1/c(=N/NC(=O)C2CCCC2)sc2cc(OC(F)(F)F)ccc21 .
## Output no

## Input What did this assay record as the result for Cn1/c(=N/NC(=O)CC2CCCC2)sc2cc(OC(F)(F)F)ccc21 ?
## Output yes

## Input Short answer needed: outcome of this test for Cn1/c(=N/NC(=O)C23CC4CC(CC(C4)C2)C3)sc2c(F)cccc21 ?
## Output no

## Input Give the logged outcome of this assay for the following compound: CC(C)OC(=O)N/N=c1\sc2cc(OC(F)(F)F)ccc2n1C
## Output yes

----------
What EC50 was measured for each of the following?
target.or.system: Voltage-gated potassium channel, KQT; KCNQ2(Kv7.2)/KCNQ3(Kv7.3) (Homo sapiens, UniProt O43525+O43526)
Sequence (O43526 whole entry): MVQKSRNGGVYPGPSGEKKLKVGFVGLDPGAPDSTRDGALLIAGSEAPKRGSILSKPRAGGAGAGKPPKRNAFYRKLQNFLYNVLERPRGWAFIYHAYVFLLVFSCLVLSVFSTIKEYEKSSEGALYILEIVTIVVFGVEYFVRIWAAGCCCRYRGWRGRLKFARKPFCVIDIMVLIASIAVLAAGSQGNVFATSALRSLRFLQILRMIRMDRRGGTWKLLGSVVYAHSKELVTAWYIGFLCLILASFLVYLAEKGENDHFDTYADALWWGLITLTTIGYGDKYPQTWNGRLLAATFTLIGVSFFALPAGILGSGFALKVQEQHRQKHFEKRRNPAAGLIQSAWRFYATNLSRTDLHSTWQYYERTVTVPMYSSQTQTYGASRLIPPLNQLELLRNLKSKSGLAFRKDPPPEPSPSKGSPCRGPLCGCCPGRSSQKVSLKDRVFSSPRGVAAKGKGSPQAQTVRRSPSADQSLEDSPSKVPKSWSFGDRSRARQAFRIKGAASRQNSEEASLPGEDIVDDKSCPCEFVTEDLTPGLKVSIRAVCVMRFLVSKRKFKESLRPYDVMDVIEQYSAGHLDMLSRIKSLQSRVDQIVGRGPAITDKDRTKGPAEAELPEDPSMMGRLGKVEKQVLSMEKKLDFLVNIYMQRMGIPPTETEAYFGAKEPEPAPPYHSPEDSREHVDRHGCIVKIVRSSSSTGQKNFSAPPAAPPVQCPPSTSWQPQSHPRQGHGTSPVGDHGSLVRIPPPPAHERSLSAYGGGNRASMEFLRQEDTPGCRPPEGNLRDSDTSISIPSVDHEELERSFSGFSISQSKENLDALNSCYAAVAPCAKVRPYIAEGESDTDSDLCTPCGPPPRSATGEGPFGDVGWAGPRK
Sequence (O43525 whole entry): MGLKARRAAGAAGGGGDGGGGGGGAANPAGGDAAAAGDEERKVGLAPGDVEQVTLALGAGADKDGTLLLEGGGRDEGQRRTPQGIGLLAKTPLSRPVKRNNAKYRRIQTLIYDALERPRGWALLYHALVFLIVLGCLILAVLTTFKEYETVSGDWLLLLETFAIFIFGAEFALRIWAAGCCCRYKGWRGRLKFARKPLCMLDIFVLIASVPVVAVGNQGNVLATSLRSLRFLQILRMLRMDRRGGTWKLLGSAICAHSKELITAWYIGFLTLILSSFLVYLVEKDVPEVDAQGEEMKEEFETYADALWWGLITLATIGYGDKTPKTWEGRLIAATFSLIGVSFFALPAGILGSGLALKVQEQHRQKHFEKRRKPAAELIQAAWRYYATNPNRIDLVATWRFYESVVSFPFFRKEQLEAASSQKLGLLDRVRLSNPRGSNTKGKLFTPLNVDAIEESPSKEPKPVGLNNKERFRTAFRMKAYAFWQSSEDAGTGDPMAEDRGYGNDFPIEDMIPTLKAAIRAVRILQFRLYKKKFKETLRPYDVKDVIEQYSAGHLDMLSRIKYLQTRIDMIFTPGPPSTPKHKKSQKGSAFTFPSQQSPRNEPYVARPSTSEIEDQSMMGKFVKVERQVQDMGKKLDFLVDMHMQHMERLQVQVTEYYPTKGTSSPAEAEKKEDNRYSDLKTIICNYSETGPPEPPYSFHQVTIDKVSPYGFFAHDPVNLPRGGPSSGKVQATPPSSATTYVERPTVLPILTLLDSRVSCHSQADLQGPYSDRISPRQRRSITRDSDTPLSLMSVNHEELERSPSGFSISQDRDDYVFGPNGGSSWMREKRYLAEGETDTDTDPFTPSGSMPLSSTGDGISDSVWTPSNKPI
method.description: Activation of KCNQ2/KCNQ3 expressed in CHO cells by isotopic efflux assay

## Input Quick check: EC50 of CN(/N=c1\sc2ccccc2n1C)C(=O)C12CC3CC(CC(C3)C1)C2 ?
## Output > 10 µM

## Input Consider the molecule CC(=O)N/N=c1\sc2cc(OC(F)(F)F)ccc2n1C and give its measured EC50.
## Output > 10 µM

## Input Which EC50 is listed for Cn1/c(=N/NC(=O)C2CCOC2)sc2cc(OC(F)(F)F)ccc21 (stereo not given) ?
## Output 6.73 µM

## Input Fill blank: measured EC50 of the molecule Cn1/c(=N/NC(=O)C23CC4CC(CC(C4)C2)C3)sc2cccc(C(F)(F)F)c21 is ____.
## Output 0.091 µM

## Input Name the reported EC50 value associated with the molecule Cn1/c(=N/NC(=O)C23CC4CC(CC(C4)C2)C3)sc2cc(C(F)(F)F)ccc21
## Output 0.16 µM
